The reported measurements were obtained from ChEMBL document CHEMBL4689842.

Below is a list of entries, each paired with its recorded Population Membrane Permeable-Phenotype (%) value.
Test system: U2OS
Assay: Multiplex assay against U2OS
Format: toxicity, cell-based
Details: human, 48 h, 1 µM, compound concentration 1 uM, replicate 1

O=C(NCCCC1CCCCC1)c1ccc(CNC(=O)c2cnn(-c3ccccc3)c2C(F)(F)F)cc1 [SR-321]	2%
CC[C@H](C)C(=O)O[C@H]1C[C@@H](C)C=C2C=C[C@H](C)[C@H](CC[C@@H]3C[C@@H](O)CC(=O)O3)[C@H]21 [LOVASTATIN]	4%
Cc1nc(-c2ccc(-c3ccc(C(=O)N4CCc5cc6c(cc54)C4(CCN(C)CC4)CO6)cc3)c(C)c2)no1 [SB-224289]	3%

I'm curious: which Population Membrane Permeable-Phenotype (%) was measured for c1cn2cc(-c3ccc4cn[nH]c4c3)nc(Nc3ccc(N4CCOCC4)cc3)c2n1 [ENTOSPLETINIB] tested on U2OS? 4%

Look up Population Membrane Permeable-Phenotype (%) with U2OS for this compound: CN1CCN(CCOc2cc(OC3CCOCC3)c3c(Nc4c(Cl)ccc5c4OCO5)ncnc3c2)CC1 [SARACATINIB] 5%

Record lookup: for U2OS, what Population Membrane Permeable-Phenotype (%) belongs to C[C@@H](NCCCc1cccc(C(F)(F)F)c1)c1cccc2ccccc12.Cl [CINACALCET HYDROCHLORIDE] ? 3%

Find Population Membrane Permeable-Phenotype (%) (U2OS) for the entry `C=CC(=O)Nc1cccc(C(=O)Nc2ccc(Nc3cc(-c4[nH]c(SC)nc4C)ccn3)cc2)c1` 4%
